These data points were gathered from PubChem BioAssay (Tox21).

Test details: qHTS assay to identify small molecule antagonists of the androgen receptor (AR) signaling pathway using the MDA cell line in the presence of 0.5 nM R1881 - cell viability counter screen (AID 1259242); further: nearly all actives have a fitted effect of over 45% in size
Experimental setup: MDA-kb2 viability, CellTiter-Fluor protease fluorescence, 16 h; series mostly up to 92.4 µM
Results filed as inconclusive are left out. The source made the active and inactive calls. The call rests on the fitted dose curve; in most records, active means well fitted cell-killing curve with a large enough effect in the repeat runs; inconclusive means weak or mixed curves, or effect the other way; inactive means flat fitted curve, though single readings scatter.
Possible outcomes: active, inactive

| Molecule | Group label |
| --- | --- |
| ClCc1ccc(Cl)cc1Cl | inactive |
| CC(C)OC(=S)S | inactive |
| Clc1ccc(C(Cl)(Cl)Cl)c(Cl)c1 | inactive |
| CC(C)(COCC1CO1)COCC1CO1 (stereo not drawn) | inactive |
| CC(=O)OC1(c2ccccc2)CCN(CCc2ccccc2)CC1 | inactive |
| CC(C)(C)c1ccc(CSc2cnn(C(C)(C)C)c(=O)c2Cl)cc1 | active |
| COc1cc(N)c(Cl)cc1C(=O)NC1CN2CCC1CC2 (stereo not drawn) | inactive |
| CCc1nn(C)c(C(=O)NCc2ccc(C(C)(C)C)cc2)c1Cl | active |
| CN(CCCC(O)c1cccnc1)N=O (stereo not drawn) | inactive |
| Clc1ccc(C(c2ccc(Cl)cc2)C(Cl)(Cl)Cl)cc1 | inactive |
| O=[N+]([O-])O.O=[N+]([O-])O.[Cd] | inactive |
| Clc1ccc(-c2ccccc2)cc1 | inactive |
| Nc1c(Oc2ccccc2)cc(O)c2c1C(=O)c1ccccc1C2=O | inactive |
| CCCCCCCCCCCCBr | inactive |
| BrCC(Br)c1ccccc1 (stereo not drawn) | inactive |
| CCc1ccccc1C | inactive |
| C[C@@H](Oc1ccc(Cl)cc1Cl)C(=O)O | inactive |
| CC(C)(C)OO | inactive |
| N#CCCC(Br)(C#N)CBr (stereo not drawn) | inactive |
| CC(C)(C)C(O)C(Oc1ccc(-c2ccccc2)cc1)n1cncn1 (stereo not drawn) | inactive |
| O=C(O)COc1nc(Cl)c(Cl)cc1Cl | inactive |
| Cc1cc(SCc2sc(-c3ccc(C(F)(F)F)c(F)c3)nc2C)ccc1OCC(=O)O | inactive |
| CCSC(C)CC1CC(=O)C(/C(CC)=N/OC/C=C/Cl)=C(O)C1 (stereo not drawn) | inactive |
| ClCc1ccccc1CCl | inactive |
| CC(=O)/C=C/c1ccc2c(c1)OCO2 | inactive |
| Clc1ccc(COC(Cn2ccnc2)c2ccc(Cl)cc2Cl)cc1 (stereo not drawn) | inactive |
| C[CH2][Hg][N]1C(=O)C2C(C1=O)C1(Cl)C(Cl)=C(Cl)C2(Cl)C1(Cl)Cl (stereo not drawn) | active |
| CCOC(=O)OC1=C(c2cc(C)ccc2C)C(=O)NC12CCC(OC)CC2 (stereo not drawn) | inactive |
